- TEST_CONTEXT: 348.15 K; Liquid; Gas chromatography
MEASURED_QUANTITY: vapor or sublimation pressure (kPa)

MOLECULE	MEASUREMENT_UNITS	NUMERIC_READOUT
C[Si](C)(C)O[Si](C)(C)O[Si](C)(C)O[Si](C)(C)O[Si](C)(C)O[Si](C)(C)C [tetradecamethylhexasiloxane]	kPa	0.03767

(I) C[Si]1(C)O[Si](C)(C)O[Si](C)(C)O[Si](C)(C)O[Si](C)(C)O[Si](C)(C)O[Si](C)(C)O[Si](C)(C)O[Si](C)(C)O1 [octadecamethylcyclononasiloxane]
(II) C[Si]1(C)O[Si](C)(C)O[Si](C)(C)O[Si](C)(C)O[Si](C)(C)O[Si](C)(C)O[Si](C)(C)O[Si](C)(C)O1 [hexadecamethylcyclooctasiloxane]
(III) C[Si](C)(C)O[Si](C)(C)O[Si](C)(C)O[Si](C)(C)O[Si](C)(C)O[Si](C)(C)O[Si](C)(C)O[Si](C)(C)C [octadecamethyloctasiloxane]
(IV) C[Si]1(C)O[Si](C)(C)O[Si](C)(C)O[Si](C)(C)O[Si](C)(C)O[Si](C)(C)O[Si](C)(C)O1 [tetradecamethylcycloheptasiloxane]
Put the items in order so that reported vapor or sublimation pressure rises from first to last. Field: ranking. Enter the labels in the order requested.
I, III, II, IV
(I: 0.0012 kPa, III: 0.001846 kPa, II: 0.004912 kPa, IV: 0.0213 kPa)

====

- TEST_CONTEXT: 368.15 K; Liquid; Gas chromatography
MEASURED_QUANTITY: vapor or sublimation pressure (kPa)

Reference set, count: 2
C[Si]1(C)O[Si](C)(C)O[Si](C)(C)O[Si](C)(C)O[Si](C)(C)O[Si](C)(C)O[Si](C)(C)O[Si](C)(C)O[Si](C)(C)O1 0.006628
C[Si](C)(C)O[Si](C)(C)O[Si](C)(C)O[Si](C)(C)O[Si](C)(C)O[Si](C)(C)O[Si](C)(C)O[Si](C)(C)O[Si](C)(C)C 0.002752

(1) C[Si](C)(C)O[Si](C)(C)O[Si](C)(C)O[Si](C)(C)O[Si](C)(C)O[Si](C)(C)O[Si](C)(C)O[Si](C)(C)C
(2) C[Si]1(C)O[Si](C)(C)O[Si](C)(C)O[Si](C)(C)O[Si](C)(C)O1
Given 1 and given 2 , which shows the smaller recorded vapor or sublimation pressure? I would appreciate it if you answered with the label of your choice.
1
(1: 0.01022 kPa, 2: 2.011 kPa)

====

- TEST_CONTEXT: 388.15 K; Liquid; Gas chromatography
MEASURED_QUANTITY: vapor or sublimation pressure (kPa)

(a) C[Si]1(C)O[Si](C)(C)O[Si](C)(C)O[Si](C)(C)O[Si](C)(C)O[Si](C)(C)O1
(b) C[Si](C)(C)O[Si](C)(C)O[Si](C)(C)O[Si](C)(C)O[Si](C)(C)O[Si](C)(C)O[Si](C)(C)O[Si](C)(C)O[Si](C)(C)O[Si](C)(C)O[Si](C)(C)O[Si](C)(C)C
(c) C[Si]1(C)O[Si](C)(C)O[Si](C)(C)O[Si](C)(C)O[Si](C)(C)O[Si](C)(C)O[Si](C)(C)O[Si](C)(C)O1
(d) C[Si](C)(C)O[Si](C)(C)O[Si](C)(C)O[Si](C)(C)O[Si](C)(C)O[Si](C)(C)O[Si](C)(C)O[Si](C)(C)O[Si](C)(C)O[Si](C)(C)O[Si](C)(C)C
(e) C[Si]1(C)O[Si](C)(C)O[Si](C)(C)O[Si](C)(C)O[Si](C)(C)O[Si](C)(C)O[Si](C)(C)O[Si](C)(C)O[Si](C)(C)O[Si](C)(C)O1
// rank above by vapor or sublimation pressure: first = highest number Field: ranking. Enter the labels in the order requested.
a, c, e, d, b

Ref: the NIST ThermoML archive (doi:10.1021/je100835n)
